The measured values listed here are drawn from the RNAGym collection of RNA variant scans (doi:10.7554/elife.80360).

B1: HDV Ribozyme (parent)
chain: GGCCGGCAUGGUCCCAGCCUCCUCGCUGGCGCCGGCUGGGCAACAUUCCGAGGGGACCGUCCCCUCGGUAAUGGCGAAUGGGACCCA

- Variants of: B1
- assay: self-cleavage, relative activity (ratio to wild type); higher = more cleavage; co-transcriptional
Quick rule for you: self-cleavage at 0.2 or higher means true (1), lower means false (0).

Examples from the recorded data:
{"columns": ["mutation", "category_label"],
 "data": [
  ["U12A C57G", "true (1)"],
  ["G1C G10A", "false (0)"],
  ["A51G A77C", "true (1)"]
]}

Query: Could you tell me if the measured self-cleavage of G5U C15A reaches 0.2 or more?
Result: false (0)

Query: I'd appreciate it if you could say whether C15U G35C has self-cleavage at least equal to 0.2.
Result: false (0)

Query: Given G28U G68A , state whether its self-cleavage is at least 0.2.
Result: false (0)

Query: Does the variant G25A G52A have recorded self-cleavage that is 0.2 or more?
Result: false (0)

Query: # check: self-cleavage of C3G G35A is greater than or equal to 0.2
Result: true (1)

Query: Given the entry G11C C15G , answer whether its self-cleavage meets or surpasses 0.2.
Result: false (0)

Query: Reported self-cleavage reaches at least 0.2 for C22G C48A ?
Result: false (0)
